This listing pairs compounds with measured melting point.

> print(dat)
                                 smi         metric         result
1  CC(=O)Oc1ccc(N=C2C=CC(=O)C=C2)cc1  melting point  111 to 116 °C

Enquiry: Look up melting point of NCc1cc(C(F)(F)F)ccc1N1CCOCC1 and report it.
Return: 31 to 34 °C

Enquiry: Look up and state reported melting point for CC(C)=C/C=C/C=N/Nc1ccc([N+](=O)[O-])cc1[N+](=O)[O-]
Return: 205 to 206 °C

====

Parameter: melting point. Scope: all listed entries.
Answer in °C, number only, no unit symbol.

Known results for compounds:
> print(dat)
                            smi  unitname  result
1               NC(=O)c1ncccc1O        °C     195
2  CNC(=O)OCc1cccc(COC(=O)NC)n1        °C     136

Proceeding to the next compound to report its melting point.
Enquiry: Please list melting point recorded for the compound CSSC
Return: -85
